Source: the DeepSol protein solubility set

protocol_notes: soluble on expression in E. coli; label from the status in PepcDB or PDB records
parameter_measured: soluble on expression in E. coli

Below, each entry is followed by its recorded soluble on expression in E. coli result.
residue_sequence	soluble on expression in E. coli
GSHMVEMRMKKCPKCGLYTLKEICPKCGEKTVIPKPPKFSLEDRWGKYRRMLKRALKNKNKAE	soluble
MQRVTITLDDDLLETLDSLSQRRGYNNRSEAIRDILRSALAQEATQQHGTQGFAVLSYVYEHEKRDLASRIVSTQHHHHDLSVATLHVHINHDDCLEIAVLKGDMGDVQHFADDVIAQRGVRHGHLQCLPKED	soluble
MKIVIAPDSFKESLSAEKCCQAIKAGFSTLFPDANYICLPIADGGEGTVDAMVAATGGNIVTLEVCGPMGEKVNAFYGLTGDGKTAVIEMAAASGLMLVAPEKRNPLLASSFGTGELIRHALDNDIRHIILGIGGSATVDGGMGMAQALGVRFLDADGQALAANGGNLARVASIEMDECDPRLANCHIEVACDVDNPLVGARGAAAVFGPQKGATPEMVEELEQGLQNYARVLQQQTEINVCQMAGGGAAGGMGIAAAVFLNADIKPGIEIVLNAVNLAQAVQGAALVITGEGRIDSQTAGGKAPLGVASVAKQFNVPVIGIAGVLGDGVEVVHQYGIDAVFSILPRLAPLAEVLASGETNLFNSARNIACAIKIGQGIKN	soluble
MVAASKEFVFHHTFKDVSQLEDGDFFKSPEEIHYNAEWFILVIRTKDQLEAYLHCDNEKDDNVAWTVDAEFSLKIASSSGSYAMKFQKGCFDGFGLGWNDFVSWDSLTEDFLYDNSFTIEACVKITKMTGFSKDVLRSFDESEKRFSDVILVVGDEKFYVLKLFLASHSSYFNALFLGKFKEADQSEVTLQNIDPTDFQSLLEVLYGEPAIDDGTIDGVLLLAHMLDVTLAIRKCEEFLIEKSMKSMRELLKMANQYQLENLKVKFYFLKIPEN	not soluble
NDGTTVTPLCTSPVVQCGEGTLFGGDEPARTWFTAAQSSGLAASGNLPSYDPKFNRGVSGSFGTSYVGREGESVRKELSAKGYKVTMTSAPGDGIPKGSVVNVIAPVPLKPGGTIELFISDGTRPRTTPPSTTRRPNPTEEVVPGTGVSQNDLDDLAHQLQQLLPGF	not soluble
MFSSIGWPEIFTVLILGLIIIGPERLPKVIEDVRAAIYAAKKAINNAKEELNGNLGAEFDEFREPINKIASIQRMGPKAVLTKALFDEDENFMDNFDPKKIMASGTEGEAYRERGINPQPAGDSASPQTPSNKESQPKAGFSWDDIT	not soluble

Value of soluble on expression in E. coli reported for the sequence `MLEYKLIRSKRRKTLALQVKHGQVTVRAPHYVTSAFIDTFIQEKSAWLRSKLAEQQKTPEYCDFSQGSNLLYLGEKVILNICIAKKSEVYFSHLVIAEIEPKNYQEITTKQLNVAISEKIHSRLINPLAISKQIKKQLEVYFKQQAEQLFSERLERISKQISLCPTAINIRQYRARWGSCNNRGEVSFNYLLMMTPLTVIDYVIVHELCHLEHLNHSKEFWHLVEKFCPNYEIAKKWLNTYQSLEHHHHHH` is soluble
